# Experimental target: Ste12 (UniProt P13574)
# Sequence (P13574 whole entry): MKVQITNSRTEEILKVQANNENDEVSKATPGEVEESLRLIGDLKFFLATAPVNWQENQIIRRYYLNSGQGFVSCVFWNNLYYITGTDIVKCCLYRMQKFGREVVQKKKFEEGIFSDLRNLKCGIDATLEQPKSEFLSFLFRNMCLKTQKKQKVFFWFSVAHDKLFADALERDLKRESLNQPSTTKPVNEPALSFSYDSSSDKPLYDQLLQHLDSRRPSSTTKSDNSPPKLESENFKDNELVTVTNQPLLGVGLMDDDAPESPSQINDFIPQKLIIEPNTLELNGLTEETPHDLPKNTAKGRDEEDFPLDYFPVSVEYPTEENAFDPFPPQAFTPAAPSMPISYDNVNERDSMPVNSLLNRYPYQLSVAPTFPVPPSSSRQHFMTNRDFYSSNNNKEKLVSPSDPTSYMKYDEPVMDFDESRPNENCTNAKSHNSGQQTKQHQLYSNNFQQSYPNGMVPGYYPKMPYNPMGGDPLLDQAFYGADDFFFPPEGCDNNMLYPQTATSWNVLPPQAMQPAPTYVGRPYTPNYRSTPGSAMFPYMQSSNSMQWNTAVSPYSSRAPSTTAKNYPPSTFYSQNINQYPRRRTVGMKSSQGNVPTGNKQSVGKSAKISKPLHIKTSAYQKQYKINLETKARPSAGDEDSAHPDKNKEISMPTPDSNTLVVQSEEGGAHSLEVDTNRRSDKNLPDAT
# Assay method text: PBM E-score (8-mer binding enrichment) (E-score (-0.5 to 0.5)); higher = stronger / more preferred TF binding
# Cond: protein concentration: 200 nM; construct: GST-DNA-binding domain
Whole data set: some 33,000 sequences, median “E-score (-0.5 to 0.5)” near -0.01, cut for the highest 2% near 0.26. The entries come from a sample that favours the highest values as a whole.
Parameter: PBM E-score
No unit in the answer, please; the number alone is enough.

Observe how each entry below is paired with its result.
chain=GTCTCCAA parameter="PBM E-score" quantitative_result=0.0569
chain=CTTTGAAA parameter="PBM E-score" quantitative_result=0.318
chain=GAAAGAAA parameter="PBM E-score" quantitative_result=0.297
chain=GTTGGTCA parameter="PBM E-score" quantitative_result=0.121
chain=GATAAAAC parameter="PBM E-score" quantitative_result=0.327

stdin: Could you tell me which PBM E-score is on file for CTTTGATA ?
stdout: 0.179

stdin: Look at this sequence and give its reported PBM E-score. ACTTTAAT
stdout: 0.263

stdin: Find the recorded PBM E-score belonging to ACGTAGCG and report it.
stdout: -0.0127

stdin: Which PBM E-score reading was recorded for the sequence AATTAAAG ?
stdout: 0.103

stdin: Fill blank: measured PBM E-score of the sequence ACTTTTAC is ____.
stdout: 0.263

stdin: Need PBM E-score of CAACCTAA , thanks.
stdout: 0.0543

stdin: PBM E-score for GAAACGTC ?
stdout: 0.303

stdin: Form field: reported PBM E-score of TATTAACA
stdout: 0.164

stdin: Given the sequence GGCTACCC , what is its reported PBM E-score?
stdout: -0.285

stdin: Look at this sequence and give its reported PBM E-score. AAAAAGAC
stdout: 0.153

stdin: Data request, read-out PBM E-score, for AAAGTTGA
stdout: 0.111

stdin: Data request, read-out PBM E-score, for CAAACGTA
stdout: -0.052

stdin: Given the entry AGTGACAG , report its measured PBM E-score.
stdout: -0.057

stdin: Entry CCGAATAG has what PBM E-score?
stdout: -0.0705

stdin: Recorded PBM E-score of CGGGGGAA , please.
stdout: 0.0885

stdin: Dear colleague, I am looking for the recorded PBM E-score of the following sequence: GGGGGAAA
stdout: 0.241

stdin: Would you kindly share the measured PBM E-score for CTTTGAAC ?
stdout: 0.0927

stdin: Please report the recorded PBM E-score for ATTCGAAC .
stdout: 0.105

stdin: Record request: PBM E-score value, item ATTTGATA
stdout: 0.258

stdin: Sample GCCTGTTA — what was its PBM E-score?
stdout: 0.00489

stdin: Entry CTCACCAA : reported PBM E-score = ?
stdout: 0.284

* * *

# Experimental target: Ste12 (UniProt P13574)
# Assay method text: PBM E-score (8-mer binding enrichment) (E-score (-0.5 to 0.5)); higher = stronger / more preferred TF binding
# Cond: protein concentration: 200 nM; construct: GST-DNA-binding domain
Whole data set: some 33,000 sequences, median “E-score (-0.5 to 0.5)” near -0.01, cut for the highest 2% near 0.26. The full list was thinned out, with the highest values kept by preference.
Label condition met for high-side PBM E-score (at or above 0.001) and condition not met for low-side PBM E-score (below it).

Example cases with answers are listed next.
chain=AAGGTTTC class="condition met"
chain=ATAACTCA class="condition met"
chain=CGGGTTTC class="condition met"
chain=CGGGTTAC class="condition met"
chain=GACCTCAC class="condition not met"
chain=TATGGTCA class="condition not met"
chain=AGTGTAGG class="condition met"
chain=CTTGAGGA class="condition not met"
chain=CGCGCTAC class="condition met"
chain=CGCGTACC class="condition not met"

stdin: Could you tell me if the measured PBM E-score of ACTGGTTG reaches 0.001 or more?
stdout: condition met

stdin: Item ATGGTTTC with PBM E-score of 0.001 or above?
stdout: condition met

stdin: Please indicate if the recorded PBM E-score for AATCTTAT meets or exceeds 0.001.
stdout: condition met

stdin: Given the entry TCACAAAA , answer whether its PBM E-score meets or surpasses 0.001.
stdout: condition met

stdin: Textbook exercise: given the entry CCGGTTTC , state whether its PBM E-score is greater than or equal to 0.001.
stdout: condition met

stdin: Please check the record CCGGTTTA and state if its PBM E-score is at or above 0.001.
stdout: condition not met

stdin: Hi, just wondering whether AATCGACA shows PBM E-score of 0.001 or higher.
stdout: condition met

stdin: Determine whether measured PBM E-score meets or exceeds 0.001 for ATGGGTTC
stdout: condition not met

stdin: Decide: PBM E-score of AGACCTAG >= 0.001?
stdout: condition not met

stdin: Can CCGGTCTA be said to have PBM E-score at or above 0.001?
stdout: condition not met

stdin: Identify whether the reported PBM E-score of the following sequence is 0.001 or greater: CCGGAACC
stdout: condition met

stdin: I'd appreciate it if you could say whether CCCCGTAC has PBM E-score at least equal to 0.001.
stdout: condition not met
